molecular target: SARS-CoV-2 receptor binding domain (UniProt P0DTC2 319-541); experiment: ELISA
Quantity: EC50

binder="8-H5-A (antibody, V domains shown) VH: QVTLKESGPGILQSSQTLSLTCSLSGFSLSTSGMGVSWVRQPSGKGLEWLAHIYWDDDKRYTPSLKSRLTISTDSSRKQVFLKITSVDTADTATYYCARRDLHDYDGWFAYWGQGTLVTVSA VL: DIVMTQSQKFMSTAVGDRVSVTCKASQNVGTNVAWYQQKPGQSPKALIYSASFRYSGVPDRFSGSGSGTDFTLTISNVQSEDLAEYFCQQYNSYPLTFGSGTKLEIK" quantity=EC50 test_result="0.13 nM"
binder="9-K4-A (antibody, V domains shown) VH: QAYLQQSGAELVRPGASVKMSCKASGYTFPNYSFHWVKQTPRQGLEWIGAIYPGNDDTSYNQRFKGKATLTVDKSSSTAYMQLSSLTSEDSAVYFCARDYSNYPFDCWGQGTTLTVSS VL: DIVLTQSPASLAVSLGQRATISCRASKSVSTSGYSYMHWYQQKPGQPPKLLIYLASNLESGVPARFSGSGSGTDFTLNIHPVEEEDAATYYCQHSRELPPTFGGGTKLEIK" quantity=EC50 test_result="0.73 nM"
binder="4-N22-A (antibody, V domains shown) VH: QVQLQQPGTELVKPGASVKLSCKASGYTFTNYWMYWVKQRPGQGLDWIGNINPSNGGTNYNEKFKSKATLTVDKSSSTAYMQLSSLTSEDSAVYYCARETGNYWGQGTTLTVSS VL: DILMTQSPSSMSVSLGDTVSISCHASQGISSNIGWLQQKPGKSFKGLIYHGTNLEDGVPSRFSGSGSGADYSLTISSLESEDFADYYCVQYAQFPYTFGGGTKLEIK" quantity=EC50 test_result="0.21 nM"

Could I get EC50 for every one of these entries?
1. 3-P7-A (antibody, V domains shown) VH: QAYLQQSGAELVRPGASVKMSCKASGYTFTSYSMHWVKQTPRQGLEWIGAIYPGNDDTSYNQKFKGKATLTVDKSSSTAYMQLSSLTSEDSAVYFCTRDYTNYPFDYWGQGTTLTVSS VL: DIVLTQSPASLPVSLGQRATISCRASKSVSTSGYSYMHWYQQRPGQPPKLLIYLASNLESGVPARFSASGSGTDFTLNIHPVEEEDAATYYCQHSRELPPTFGGGTKVEIK
2. 2-P2-A (antibody, V domains shown) VH: EVQLQQSGAELVRPGSSVKMSCKTSGYTFTSYGINWVKQRPGQGLEWIGYIYIGNGYTEYNEKFKGKATLTSDTSSSTAYMQLSSLTSEDSAIYFCARGGVDYWGQGTTLTVSS VL: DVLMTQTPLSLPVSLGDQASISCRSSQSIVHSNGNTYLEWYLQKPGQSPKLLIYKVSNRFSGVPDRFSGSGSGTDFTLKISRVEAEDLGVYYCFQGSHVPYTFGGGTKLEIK
3. 5-H22-A (antibody, V domains shown) VH: QVQLQQSGAELVRPGASVTLSCKASGYTFTDYEMHWMKQTPVHGLEWIGAIDLETGGTVYNQKFKGKAILTADKSSNTAYMALRSLTSEDSAVYYCTREFPHYYGSRYGFPYWGQGTLVTVSA VL: QIVLTQSPAIMSASPGEKVTITCSASSSVSYMHWLQQKPGTSPKLWIYSTSNLASGVPARFSGSGSGTSYSLTISRMEAEDAATYYCQQRSSYPYTFGGGTKLEIK

Out:
2.93 nM
89.5 nM
166 nM

meta.source: patent US20240239875A1
